Target sequence: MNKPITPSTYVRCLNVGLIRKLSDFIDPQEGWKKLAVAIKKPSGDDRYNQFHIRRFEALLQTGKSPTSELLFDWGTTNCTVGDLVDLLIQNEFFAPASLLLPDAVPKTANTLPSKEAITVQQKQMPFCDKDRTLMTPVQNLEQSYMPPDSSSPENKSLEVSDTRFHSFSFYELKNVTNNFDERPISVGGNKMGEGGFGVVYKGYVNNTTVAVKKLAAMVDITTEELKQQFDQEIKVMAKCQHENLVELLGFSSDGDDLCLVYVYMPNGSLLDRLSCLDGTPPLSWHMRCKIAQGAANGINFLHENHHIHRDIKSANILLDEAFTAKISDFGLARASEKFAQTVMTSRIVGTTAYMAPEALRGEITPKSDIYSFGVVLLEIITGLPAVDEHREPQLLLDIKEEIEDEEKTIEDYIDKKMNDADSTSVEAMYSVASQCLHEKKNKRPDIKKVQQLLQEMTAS
Quick reference: IC50 of the listed items.

Look over these answered cases.
C=CC(=O)N1CC(c2nc(-c3ccc(NC(=O)c4cccc(-c5[nH]ncc5C)n4)c(F)c3)no2)CC(F)(F)C1 (stereo not drawn); > 10 µM
C=CC(=O)N1CCC[C@H](c2nc(-c3ccc(NC(=O)c4cccc(-c5[nH]ncc5Cl)n4)cc3)no2)C1; > 10 µM
C=CC(=O)N1CCC[C@H](C(=O)Nc2ccc(Nc3n[nH]c4ccc(-c5ccn[nH]5)nc34)cc2)C1; 0.365 µM
C=CC(=O)N[C@@H]1CNC[C@H](c2nc(-c3ccc(NC(=O)c4cccc(-c5ccn[nH]5)n4)c(F)c3)no2)C1; > 10 µM
C=CC(=O)N1CCC[C@H](C(=O)Nc2ccc(NC(=O)c3csc(-c4ccn[nH]4)n3)cc2)C1; 8.22 µM
C=CC(=O)N1C[C@@H](c2nc(-c3ccc(NC(=O)c4cccc(-c5ccn[nH]5)n4)nc3)no2)CC(F)(F)C1; > 10 µM

In: Consider the molecule C=CC(=O)N1CC2CC1[C@@H](c1nc(-c3ccc(NC(=O)c4cccc(-c5[nH]ncc5C)n4)nc3)no1)C2 (stereo partly drawn) and give its recorded IC50.
Out: > 10 µM

----------
Molecular target: IRAK1 (Homo sapiens)
assay readout: IC50 (nM)

// below: answered compounds
C=CC(=O)N1CCC[C@H](C(=O)Nc2ccc(Nc3nsc4ccc(-c5ccn[nH]5)nc34)cc2)C1; 2.22
C=CC(=O)N1CC(C(F)(F)F)C[C@H](c2nc(-c3ccc(NC(=O)c4cccc(-c5ccn[nH]5)n4)nc3)no2)C1 (stereo partly drawn); 3.98

[A] C=CC(=O)N1C[C@@H](c2nc(-c3ccc(NC(=O)c4cccc(-c5ccn[nH]5)n4)nc3)no2)C[C@@H](C(F)(F)F)C1
[B] C=CC(=O)N1CCC[C@H](c2nc(-c3ccc(NC(=O)c4cccc(-c5ccn[nH]5)n4)c(OC)c3)no2)C1
[C] C=CC(=O)N1CC(c2nc(-c3ccc(NC(=O)c4cccc(-c5ccn[nH]5)n4)nc3)no2)CC(F)(F)C1 (stereo not drawn)
In: Order the entries by their reported IC50, beginning at the minimum. Write the labels in rank order as requested.
Out: B, C, A

----------
Biological target: IRAK1 (Homo sapiens)
pIC50: −log10 of the molar value.
assay readout: pIC50

Record excerpt, results attached:
C=CC(=O)N1CCC[C@H](c2nc(-c3ccc(NC(=O)c4cccc(-c5ccn[nH]5)n4)c(Cl)c3)no2)C1; 8.35
C=CC(=O)N1CCC[C@H](C(=O)Nc2ccc(-c3ncc(-c4cccc(-c5ccn[nH]5)n4)[nH]3)nc2)C1; 8.18
C=CC(=O)N1CCC[C@H](C(=O)Nc2ccc(Nc3n[nH]c4ccc(-c5ccn[nH]5)nc34)cc2)C1; 8.16
C=CC(=O)N1CCC[C@H](c2nc(-c3ccc(NC(=O)c4cccc(-c5[nH]ncc5C)n4)cc3)no2)C1; 8.17

[1] C=CC(=O)N1CC(c2nc(-c3ccc(NC(=O)c4cccc(-c5[nH]ncc5Cl)n4)nc3)no2)CC(F)(F)C1 (stereo not shown)
[2] C=CC(=O)N[C@@H]1CNC[C@H](c2nc(-c3ccc(NC(=O)c4cccc(-c5ccn[nH]5)n4)c(F)c3)no2)C1
[3] C=CC(=O)N1CCC[C@H](C(=O)Nc2ccc(-c3nc(-c4cccc(-c5ccn[nH]5)n4)no3)nc2)C1
In: Sort the 3 compounds by pIC50; largest first, smallest last. Please express your ranking as an ordered list of the labels.
Out: 3, 1, 2
(3: 8.59, 1: 8.29, 2: 7.34)

----------
Molecular target: IRAK4 (Homo sapiens)
// values below are reported IC50

A selection of reference data follows.
C=CC(=O)N1CCC[C@H](c2nc(-c3ccc(NC(=O)c4cccc(-c5ccn[nH]5)n4)cn3)no2)C1; > 10 µM
C=CC(=O)N1CCC[C@H](c2nc(-c3ccc(NC(=O)c4cccc(-c5ccn[nH]5)n4)c(F)c3)no2)C1; > 10 µM
C=CC(=O)N1C[C@@H](c2nc(-c3ccc(NC(=O)c4cccc(-c5ccn[nH]5)n4)c(F)c3)no2)CC(F)(F)C1; > 10 µM
C=CC(=O)N1CC(c2nc(-c3ccc(NC(=O)c4cccc(-c5[nH]ncc5Cl)n4)nc3)no2)CC(F)(F)C1 (stereo not shown); > 10 µM

In: Report IC50 under test system IRAK4 (Homo sapiens) for C=CC(=O)N1CCC[C@H](C(=O)Nc2ccc(-c3nnc(-c4cccc(-c5ccn[nH]5)n4)o3)nc2)C1 .
Out: 0.331 µM

In: Provide measured IC50 on IRAK4 (Homo sapiens) for C=CC(=O)N1C[C@@H](c2nc(-c3ccc(NC(=O)c4cccc(-c5ccn[nH]5)n4)nc3)no2)C[C@@H](C(F)(F)F)C1 please.
Out: > 10 µM

In: Please look at C=CC(=O)N1CCC[C@H](c2nc(-c3ccc(NC(=O)c4cccc(-c5[nH]ncc5C)n4)cc3)no2)C1 and tell me its recorded IC50 on IRAK4 (Homo sapiens).
Out: 8.75 µM

----------
Biological target: IRAK1 (Homo sapiens, UniProt P51617)
Sequence (P51617 whole entry): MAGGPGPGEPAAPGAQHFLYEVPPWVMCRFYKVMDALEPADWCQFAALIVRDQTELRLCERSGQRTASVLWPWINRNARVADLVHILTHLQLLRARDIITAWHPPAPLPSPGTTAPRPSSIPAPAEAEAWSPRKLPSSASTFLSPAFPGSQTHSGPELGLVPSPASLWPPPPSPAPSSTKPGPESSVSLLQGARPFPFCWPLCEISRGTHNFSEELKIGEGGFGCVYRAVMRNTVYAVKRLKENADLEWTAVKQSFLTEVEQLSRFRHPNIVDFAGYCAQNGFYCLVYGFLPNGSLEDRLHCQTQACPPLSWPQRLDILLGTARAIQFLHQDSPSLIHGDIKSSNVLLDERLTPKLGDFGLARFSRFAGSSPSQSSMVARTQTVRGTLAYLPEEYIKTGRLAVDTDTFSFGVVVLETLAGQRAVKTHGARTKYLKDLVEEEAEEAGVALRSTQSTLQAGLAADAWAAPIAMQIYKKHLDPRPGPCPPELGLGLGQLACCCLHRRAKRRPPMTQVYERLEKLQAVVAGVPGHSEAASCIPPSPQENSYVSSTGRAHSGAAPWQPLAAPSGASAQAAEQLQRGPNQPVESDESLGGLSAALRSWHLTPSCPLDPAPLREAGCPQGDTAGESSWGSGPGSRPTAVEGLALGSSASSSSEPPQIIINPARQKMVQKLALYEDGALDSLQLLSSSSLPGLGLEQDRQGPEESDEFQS
pIC50: −log10 of the molar value.
assay readout: pIC50

Guide cases for pIC50, answers given:
C=CC(=O)N1CCC[C@H](c2nc(-c3ccc(NC(=O)c4cccc(-c5ccn[nH]5)n4)c(C(F)(F)F)c3)no2)C1 [Compound 080]; 8.08
C=CC(=O)N1C[C@@H](c2nc(-c3ccc(NC(=O)c4cccc(-c5ccn[nH]5)n4)c(F)c3)no2)CC(F)(F)C1 [Compound 090]; 8.18
C=CC(=O)N1CCC[C@H](c2nc(-c3ccc(NC(=O)c4cccc(-c5ccn[nH]5)n4)c(OC(F)(F)F)c3)no2)C1 [Compound 081]; 8.05

[I] C=CC(=O)N1CCC[C@H](c2nnc(-c3ccc(NC(=O)c4cccc(-c5ccn[nH]5)n4)nc3)o2)C1 [Compound 005]
[II] C=CC(=O)N1CCC[C@H](C(=O)Nc2ccc(-c3nnc(-c4cccc(-c5ccn[nH]5)n4)o3)nc2)C1 [Compound 019]
In: Thinking about recorded pIC50 values, which is higher, I or II ? State the label of the item chosen.
Out: II

----------
Biological target: IRAK4 (Homo sapiens, UniProt Q9NWZ3)
Test: Z'-LYTE assay (ThermoFisher) against IRAK4
Assay type: biochemical
Settings: Ser/Thr 07 substrate, 60 minutes at room temperature
assay readout: IC50 (µM)

[1] C=CC(=O)N1CCC[C@H](c2nc(-c3ccc(NC(=O)c4cccc(-c5ccn[nH]5)n4)c(Cl)c3)no2)C1 [Compound 079]
[2] C=CC(=O)N1CCC[C@H](C(=O)Nc2ccc(-c3cnc(-c4cccc(-c5ccn[nH]5)n4)[nH]3)cc2)C1 [Compound 070]
In: // compare: 1 vs 2 , metric IC50, want the smaller In your reply, give the label of the chosen option.
Out: 1
(1: 0.978 µM, 2: 3.33 µM)

----------
Recorded pIC50 for the following compounds
Molecular target: IRAK4 (Homo sapiens, UniProt Q9NWZ3)
Sequence (Q9NWZ3 1-460): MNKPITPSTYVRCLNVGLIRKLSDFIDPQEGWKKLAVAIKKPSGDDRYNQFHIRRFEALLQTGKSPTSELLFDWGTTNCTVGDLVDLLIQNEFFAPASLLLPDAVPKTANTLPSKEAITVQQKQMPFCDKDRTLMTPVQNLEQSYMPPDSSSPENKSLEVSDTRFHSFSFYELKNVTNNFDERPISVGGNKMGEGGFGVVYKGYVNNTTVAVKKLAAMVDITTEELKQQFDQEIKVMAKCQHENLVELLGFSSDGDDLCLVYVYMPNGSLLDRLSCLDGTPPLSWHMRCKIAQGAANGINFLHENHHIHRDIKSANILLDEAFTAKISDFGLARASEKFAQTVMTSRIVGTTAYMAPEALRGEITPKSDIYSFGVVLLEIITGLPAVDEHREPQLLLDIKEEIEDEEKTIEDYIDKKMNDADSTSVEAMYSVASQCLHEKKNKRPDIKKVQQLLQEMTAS
pIC50: −log10 of the molar value.

In: Find the measured pIC50 of C=CC(=O)N1CC(c2nc(-c3ccc(NC(=O)c4cccc(-c5[nH]ncc5C)n4)nc3)no2)CC(F)(F)C1 (stereo not drawn) with IRAK4 (Homo sapiens, UniProt Q9NWZ3) as test system.
Out: < 5.00

In: Param request: pIC50 | system IRAK4 (Homo sapiens, UniProt Q9NWZ3) | item C=CC(=O)N1CCC[C@H](c2nc(-c3ccc(NC(=O)c4cccc(-c5ccn[nH]5)n4)cc3)no2)C1
Out: < 5.00

In: Enter measured pIC50, system IRAK4 (Homo sapiens, UniProt Q9NWZ3), for the compound shown: C=CC(=O)N1CC(C(F)(F)F)C[C@H](c2nc(-c3ccc(NC(=O)c4cccc(-c5ccn[nH]5)n4)nc3)no2)C1 (stereo partly drawn)
Out: < 5.00
